Each recorded value in this set is attributed to paper PMC3059195.

- System: B6-Bcl-2 transgenic mice (B-cells overexpress human Bcl-2)
- Assay remarks: B6-Bcl-2 transgenic mouse spleen weight study
- Experimental context: 60 μmol/kg i.p., single injection
Property measured: tolerability / toxicity of treated mice

Example results:
CC1=C(C2=C(C)C(=O)c3c(cc(O)c(O)c3CCc3ccc(C)cc3)C2=O)C(=O)c2cc(O)c(O)c(CCc3ccc(C)cc3)c2C1=O = no observed toxicity
CC1=C(C2=C(C)C(=O)c3c(cc(O)c(O)c3C(=O)NCC(C)c3ccccc3)C2=O)C(=O)c2cc(O)c(O)c(C(=O)NCC(C)c3ccccc3)c2C1=O (stereo not drawn) = died
CC1=C(C2=C(C)C(=O)c3c(cc(O)c(O)c3CCC3CCCCC3)C2=O)C(=O)c2cc(O)c(O)c(CCC3CCCCC3)c2C1=O = no observed toxicity
CC1=C(C2=C(C)C(=O)c3c(cc(O)c(O)c3Cc3ccccc3)C2=O)C(=O)c2cc(O)c(O)c(Cc3ccccc3)c2C1=O = died
CC1=C(C2=C(C)C(=O)c3c(cc(O)c(O)c3CC(C)C)C2=O)C(=O)c2cc(O)c(O)c(CC(C)C)c2C1=O = no observed toxicity

Q: Could you share what tolerability / toxicity of treated mice was measured for CC1=C(C2=C(C)C(=O)c3c(cc(O)c(O)c3Cc3ccc(Cl)cc3)C2=O)C(=O)c2cc(O)c(O)c(Cc3ccc(Cl)cc3)c2C1=O , tested on B6-Bcl-2 transgenic mice (B-cells overexpress human Bcl-2)?
A: died
